B1: ALDH8A1 (parent)
chain: WSSRSPQERSRVLNQVADLLEQSL

Variants of: B1
experimental.protocol: protein stability index of a GFP-peptide fusion (GPS, HEK-293T) (PSI 1-6); higher = more stable;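 note: lentivirally expressed fusions sorted by FACS into six bins by GFP to DsRed ratio, PSI derived from sequencing read proportions per bin multiplied by bin number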
experimental.setup: c terminus: a fixed tail appended
measured.property: protein stability index

> print(dat)
    mutation.notation        measured.property  recorded.number
 1                Q7N  protein stability index             2.81
 2               E21S  protein stability index             2.27
 3               N14W  protein stability index             1.95
 4                S5A  protein stability index             2.62
 5               L13H  protein stability index             2.73
 6                Q7I  protein stability index             2.42
 7               Q22E  protein stability index             2.88
 8                R9C  protein stability index             1.39
 9               L24N  protein stability index             2.96
10               Q15T  protein stability index             2.59
11                Q7D  protein stability index             2.96
12                R4N  protein stability index             2.61
13                Q7E  protein stability index             2.76
14                E8N  protein stability index             2.23
15                Q7A  protein stability index             2.38
16                S3Y  protein stability index             2.25
17                P6Q  protein stability index             2.85
18                S3G  protein stability index             1.82
19                E8M  protein stability index             2.19
20                W1H  protein stability index             3.56
21               L19G  protein stability index             4.16
22               Q15I  protein stability index             2.07
23                W1I  protein stability index             2.69
24               V12L  protein stability index             2.06
25               L19W  protein stability index             2.24
26               L13R  protein stability index             3.03
27               L20Q  protein stability index             3.68
28               V16D  protein stability index             4.34
29                R4V  protein stability index             2.02
30               L24F  protein stability index             2.03
31                W1K  protein stability index             3.18
32               L13K  protein stability index             3.53
33                S5N  protein stability index             2.43
34                E8D  protein stability index             2.87
35                P6K  protein stability index             2.42
36                E8K  protein stability index             2.04
37               N14F  protein stability index             1.26
38                P6C  protein stability index             2.19
39               V16F  protein stability index             1.92
40               D18I  protein stability index             1.76
41               N14A  protein stability index             2.56
42               S23L  protein stability index             2.11
43               S23P  protein stability index             3.15
44               E21Q  protein stability index             2.38
45               L19S  protein stability index             4.14
46                S2N  protein stability index             2.78
47               D18A  protein stability index             1.98
48                E8V  protein stability index             2.23
49                Q7F  protein stability index             1.77
50               Q22H  protein stability index             3.34
51               S10Y  protein stability index             2.37
52               R11H  protein stability index             1.89
53               R11V  protein stability index             2.68
54                E8I  protein stability index             2.68
55               L13S  protein stability index             3.49
56               E21D  protein stability index             2.58
57                R4E  protein stability index             2.97
58               N14G  protein stability index             2.38
59               Q15Y  protein stability index             1.81
60               L13W  protein stability index             2.55
